assay explanation: Measurement of enzyme substrate degradation (100° C. for 15 minutes) by fluorescence
Type: physicochemical
conditions: pH 8 LB broth, no spores, read at 60° C., +5 min
I'd appreciate it if you could supply MEASURED FLUORESCENCE, RFU +5 min values for the items below.
State just the number; it will be interpreted in RFU.

For Cc1cc(=O)oc2c(F)c(O[C@H]3O[C@H](CO)[C@@H](O)[C@H](O)[C@H]3O)c(F)cc12 [Comparative Example A] , what is its reported MEASURED FLUORESCENCE, RFU +5 min? 14483

For Cc1cc(=O)oc2cc(O[C@H]3O[C@H](CO)[C@@H](O)[C@H](O)[C@H]3O)ccc12 [MUG] , what is its reported MEASURED FLUORESCENCE, RFU +5 min? 685

For Cc1cc(=O)oc2cc(O[C@H]3O[C@H](CO)[C@@H](O)[C@H](O)[C@H]3O)c(F)cc12 [Example 1] , what is its reported MEASURED FLUORESCENCE, RFU +5 min? 1130

For Cc1cc(=O)oc2cc(O[C@H]3O[C@H](CO)[C@@H](O)[C@H](O)[C@H]3O)cc(F)c12 [Example 2] , what is its reported MEASURED FLUORESCENCE, RFU +5 min? 705
